- System: blood of patients with AML
- assayDetails: Hemogram of blood of patients with AML after exposure (Example 14, Table 11)
- Type: cell-based
- conditions: AML (Table 11); 10 µg/ml; 3 hours, 37.0°C
Recorded measurements of Eosinophils, one per entry

[[record]]
compound = "COc1cccc2c1C(=O)c1c(O)c3c(c(O)c1C2=O)C[C@@](O)(C(=O)CO)C[C@@H]3O[C@H]1C[C@H](N)[C@H](O)[C@H](C)O1 [Doxorubicin, doxorubicin, reference compound]"
systemtested = "blood of patients with AML"
result = "0,0±0,0%"

[[record]]
compound = "COc1cc2c(cc1OC)C(c1cc3c(cc1Br)OCO3)NCC2 (stereo not shown)"
systemtested = "blood of patients with AML"
result = "0,0±0,0%"

[[record]]
compound = "Nc1ccn([C@@H]2O[C@H](CO)[C@@H](O)[C@@H]2O)c(=O)n1 [Cytosar, cytarabine, reference compound]"
systemtested = "blood of patients with AML"
result = "4,0±0,2%"


Alright, here's another compound for you.
Query string: Kindly indicate its recorded Eosinophils. Item: COc1cc2c(cc1OC)C(c1cc3c(cc1Cl)OCO3)NCC2 (stereo not shown)
Result string: 0,5±0,2%
